Could you please report measured GI50 for the items listed next?
Tested on: PC-3
Test: NCI tumour cell line growth inhibition, 48 h
Active and inactive are the calls of the source. Cut-off read from the data, not from the text of the source: active = GI50 up to about 1.1 µM and inactive = higher.

List GI50 for every entry below, keeping the order given.
1. C=C(CN(C)C)C(=O)c1ccccc1OC
2. COc1cc2c(cc1OCCCC(=O)Nc1cc(C(=O)Nc3cc(C(=O)Nc4cc(C(=O)NCCCN(C)C)n(C)n4)n(C)c3)n(C)c1)N=CC1CCCN1C2=O (centres undefined)
3. CC(C)(C)c1ccc(C(C)(C)C)c(N2C(=O)[C@@H]3[C@@H]4C=C[C@@H](C4)[C@]3(C)C2=O)c1
4. Oc1cc(Cl)cc2cccnc12

17.5 µM (inactive)
23.6 µM (inactive)
20.2 µM (inactive)
1.26 µM (inactive)

====

Tested on: SK-OV-3
Experiment: NCI tumour cell line growth inhibition, 48 h
Active and inactive are the calls of the source. No stated cut-off is given here; in the data, active = GI50 up to about 1.1 µM and inactive = higher.
For each entry below, report its GI50 value.

- Compound: "Cc1cc(C)c2c(c1)CC1(Cc3ccc(C)c(C)c3C1=O)C2=O (stereo not given)"
  Parameter: "GI50"
  Value reported: "> 100 µM (inactive)"
- Compound: "CCOC(=O)C1C(=O)CC(O)(c2ccccc2)C(C(=O)OCC)C1c1ccc(N(C)C)cc1 (stereo not given)"
  Parameter: "GI50"
  Value reported: "18.2 µM (inactive)"
- Compound: "O=c1c2ccccc2nc(-c2ccccc2Cl)n1NCC1(O)OCC(O)C(O)C1O (stereo not given)"
  Parameter: "GI50"
  Value reported: "> 100 µM (inactive)"
- Compound: "OC12c3ccccc3C1CCCCCCCCCC21OCCO1 (stereo not given)"
  Parameter: "GI50"
  Value reported: "> 100 µM (inactive)"
- Compound: "O=[N+]([O-])c1cc(F)ccc1S(=O)(=O)c1ccccc1"
  Parameter: "GI50"
  Value reported: "> 10 µM (inactive)"

Below are some compounds; for each one, tell me its GI50.
1. CCCCCCCCCCCCCCCCCC(=O)OCC(COC1OC(CS(=O)(=O)O)C(O)C(O)C1O)OC(=O)CCCCCCCCCCCCCCCCC (stereo not given)
2. CC1(C(=O)Nc2ccc3ccccc3c2)CC2(C)CC(C)(C1)C(O)NC2=O (stereo not given)

1. > 100 µM (inactive)
2. > 100 µM (inactive)

Dear reader, for each entry below, please note its GI50.
1. COC(=O)[C@H]1C[C@H]1NC(=O)C(CC(=O)OCc1ccccc1)NC(=O)OCc1ccccc1 (stereo not given in full)
2. CSC1=Nc2ccccc2-c2nc3ccccc3cc2C1
3. COC(=O)C1C(C(=O)OC)N(Cc2ccccc2)C(=O)N1Cc1ccccc1 (stereo not given)

1: 55 µM (inactive); 2: > 100 µM (inactive); 3: 53.8 µM (inactive)

====

Test system: COLO 205
Assay: NCI tumour cell line growth inhibition, 48 h
The source made the active and inactive calls. Rule as the data show it: active = GI50 up to about 1.1 µM and inactive = higher.
Mark one answer only. Choices: TRUE = active, FALSE = inactive

Worked examples, 4 compounds total:
- Compound: "CN1/C(=C\\N=O)C(C)(C)N(O)C1(C)C"
  Experimental system: "COLO 205"
  Assigned category: "FALSE"
- Compound: "CC1=C2C(=CC(C)(CO)C2O)C(=O)C(C)(O)C12CC2 (stereo unspecified)"
  Experimental system: "COLO 205"
  Assigned category: "TRUE"
- Compound: "CCCCCCCCCCCCCCCCCC(=O)OCC(COC1OC(CS(=O)(=O)O)C(O)C(O)C1O)OC(=O)CCCCCCCCCCCCCCCCC (stereo unspecified)"
  Experimental system: "COLO 205"
  Assigned category: "FALSE"
- Compound: "CCOC(=O)C(=O)Nc1ccccc1C"
  Experimental system: "COLO 205"
  Assigned category: "FALSE"

// param item: Cc1nn(C(=O)c2ccncc2)c2c1C(c1ccccc1O)SC(=N)N2 (stereo unspecified) ; yields the recorded call FALSE

Next compound up: "Cc1nc2ccccc2c(=O)n1/N=C/c1ccc(N(C)C)cc1" FALSE

And for "Cc1cc2nc(C=C(C(F)(F)F)C(F)(F)F)sc2cc1C" ? FALSE

# iterate: "O=C1/C(=C/c2ccccc2)CN(C(=O)Oc2ccccc2)C/C1=C\c1ccccc1" FALSE

Continue with "Cn1c(=O)c2c(nc(C[N+]3([O-])CCOCC3)n2C)n(C)c1=O" FALSE

Note, next up: "O=S(=O)(Cc1nc2ccccc2s1)c1nc2ccccc2s1" FALSE

Moving on to COC1C2c3cc4c(cc3CC(C#N)(c3ccccc32)N1C(=O)c1ccccc1)OCO4 (stereo unspecified) FALSE
